- system tested: UniProtKB P11229
- assay overview: In vitro functional assay of muscarinic acetylcholine receptor activity (aequorin calcium flux, reversal of EC80 acetylcholine response)
- Format: cell-based
- assay setup: CHO-K1 cells stably expressing human M1 receptor with aequorin; acetylcholine at EC80; calcium flux (luminescence); read-out: M1 IC50
pIC50: −log10 of the molar value.
Overview of recorded pIC50 for various compounds

# example entries with known answers
1. N#Cc1ccc(N2C3CCC2CN(C(=O)CN2CCC2c2ccc(F)cc2)C3)nc1 (racemic); < 6.00
2. CC(OCC(=O)N1CC2CCC(C1)N2c1ccc(C#N)cn1)c1cccc2nccnc12 (racemic); > 8.00
3. COc1cc(C(F)(F)COCC(=O)N2CC3CCC(C2)N3c2ccc(C#N)cn2)ccn1; 6.00 to 7.00
4. COc1cc(C2(OCC(=O)N3CC4CCC(C3)N4c3ccc(C#N)cn3)CCC2)ncn1; 7.00 to 8.00
5. Cc1noc(C)c1C(F)(F)CCC(=O)N1CC2CCC(C1)N2c1ccc(C#N)cn1; > 8.00
6. CCOc1cncc(C2(OCC(=O)N3CC4CCC(C3)N4c3ccc(C#N)cn3)CCC2)c1; 7.00 to 8.00

-- ask Checklist item: pIC50 tested on UniProtKB P11229, entry C[C@@H](OCCC(=O)N1C[C@H]2CC[C@@H](C1)N2c1ccc(C#N)cn1)c1ccccc1 , value?
-- reply 7.00 to 8.00

-- ask What measured pIC50 is associated with COc1cccc(C2(OCC(=O)N3CC4CCC(C3)N4c3ccc(C#N)cn3)COC2)c1 on UniProtKB P11229?
-- reply 7.00 to 8.00

* * *

- system tested: human M1 receptor (Homo sapiens)
- assay overview: In vitro functional assay of muscarinic acetylcholine receptor activity (aequorin calcium flux, reversal of EC80 acetylcholine response)
- Assay type: cell-based
- assay setup: CHO-K1 cells stably expressing human M1 receptor with aequorin; acetylcholine at EC80; calcium flux (luminescence); read-out: M1 IC50
pIC50: −log10 of the molar value.
quantity name: pIC50

These solved cases illustrate the format of a correct answer.
1) N#Cc1ccc(N2C3CCC2CN(C(=O)CNC2(c4c(F)cccc4F)CC2)C3)nc1 [Example 72]; 6.00 to 7.00
2) N#Cc1ccc(N2C3CCC2CN(C(=O)CNC2(c4ccc(F)cc4F)CC2)C3)nc1 [Example 59]; > 8.00
3) N#Cc1ccc(N2C3CCC2CN(C(=O)COC2(c4cccc(Br)c4)CC2)C3)nc1 [Example 209]; 6.00 to 7.00

-- ask Any idea what its pIC50 is? The molecule is COc1cc(C(F)(F)CCC(=O)N2CC3CCC(C2)N3c2ccc(C)nn2)ccn1 [Example 157]
-- reply 6.00 to 7.00

* * *

- system tested: human M1 receptor (Homo sapiens)
- assay overview: In vitro functional assay of muscarinic acetylcholine receptor activity (aequorin calcium flux, reversal of EC80 acetylcholine response)
- Format: cell-based
- assay setup: CHO-K1 cells stably expressing human M1 receptor with aequorin; acetylcholine at EC80; calcium flux (luminescence); read-out: M1 IC50
quantity name: IC50

1) N#Cc1ccc(N2C3CCC2CN(C(=O)CNC2(c4ccc(F)cc4)CC2)C3)nc1; 100 to 1000 nM
2) N#Cc1ccc(N2C3CCC2CN(C(=O)CNC2(c4ccccc4Br)CC2)C3)nc1; 10 to 100 nM
3) Cc1noc(C)c1C1(OCC(=O)N2CC3CCC(C2)N3c2ccc(C#N)cn2)CCC1; < 10 nM
4) CC(SCC(=O)N1CC2CCC(C1)N2c1ccc(C#N)cn1)c1ccc(F)cc1 (racemic); 10 to 100 nM
5) N#Cc1ccc(N2C[C@H]3CC[C@@H]2CN3C(=O)CCNC2(c3ccc(F)c(F)c3)CC2)nc1; 10 to 100 nM

-- ask Fill blank: measured IC50 of the compound N#Cc1ccc(N2C3CCC2CN(C(=O)CCOC2(c4ccc(F)cc4)CCC2)C3)nc1 is ____.
-- reply < 10 nM

-- ask Can you share its IC50? I mean this compound: N#Cc1ccc(N2C3CCC2CN(C(=O)CNC(c2ccc(F)cc2F)C(F)F)C3)nc1 (racemic)
-- reply 10 to 100 nM

-- ask Requested read-out: IC50. Entry: N#Cc1ccc(N2C3CCC2CN(C(=O)CNC2(c4cccc(OC(F)(F)F)c4)CCC2)C3)nc1
-- reply 100 to 1000 nM

* * *

- system tested: human M1 receptor (Homo sapiens, UniProt P11229)
- assay overview: In vitro functional assay of muscarinic acetylcholine receptor activity (aequorin calcium flux, reversal of EC80 acetylcholine response)
- Assay type: cell-based
- assay setup: CHO-K1 cells stably expressing human M1 receptor with aequorin; acetylcholine at EC80; calcium flux (luminescence); read-out: M1 IC50
quantity name: IC50

Known IC50 results, listed for orientation:
1. N#Cc1ccc(N2[C@@H]3CC[C@H]2CN(C(=O)CCNC2(c4ccccn4)CC2)C3)nc1 [Example 18]; 1000 to 10000 nM
2. COc1cc(F)ccc1C(C)NCC(=O)N1CC2CCC(C1)N2c1ccc(C#N)cn1 (racemic) [Example 56]; < 10 nM
3. N#Cc1ccc(N2C3CCC2CN(C(=O)COC2CCc4ccc(F)cc42)C3)nc1 (racemic) [Example 183]; 10 to 100 nM

-- ask Which IC50 reading was recorded for the molecule N#Cc1ccc(N2C3CCC2CN(C(=O)COC(c2ccc(F)c(F)c2)C2CC2)C3)nc1 (racemic) [Example 194] ?
-- reply 100 to 1000 nM

* * *

The reader will find reported IC50 values listed item by item below.
- system tested: human M1 receptor (Homo sapiens, UniProt P11229)
- assay overview: In vitro functional assay of muscarinic acetylcholine receptor activity (aequorin calcium flux, reversal of EC80 acetylcholine response)
- Assay type: cell-based
- assay setup: CHO-K1 cells stably expressing human M1 receptor with aequorin; acetylcholine at EC80; calcium flux (luminescence); read-out: M1 IC50

Recorded IC50, per entry:
1. COc1ncccc1C(F)(F)/C=C/C(=O)N1C[C@H]2CC[C@@H](C1)N2c1ccc(C#N)cn1; < 0.01 µM
2. N#Cc1ccc(N2C3CCC2CN(C(=O)COC2(c4ccccc4Br)CC2)C3)nc1; 0.01 to 0.1 µM
3. CC(c1ccc(F)cc1)S(=O)(=O)CCC(=O)N1CC2CCC(C1)N2c1ccc(C#N)cn1 (racemic); > 1 µM
4. N#Cc1ccc(N2[C@@H]3CC[C@H]2CN(C(=O)CCN2CCC2c2ccc(F)cc2)C3)nc1 (mixture of isomers); 1 to 10 µM
5. COc1cc(C(F)(F)CCC(=O)N2C[C@@H]3CC[C@H]2CN3c2ccc(C#N)cn2)ccn1; 0.01 to 0.1 µM

-- ask Request the reported IC50 associated with COc1cc(C2(OCC(=O)N3CC4CCC(C3)N4c3ccc(C#N)cn3)CC2)ccc1F
-- reply 0.01 to 0.1 µM

-- ask Endpoint output: IC50 of COc1cccc(C2(NCCC(=O)N3CC4CCC(C3)N4c3ccc(C#N)cn3)CC2)c1 . Value?
-- reply 0.01 to 0.1 µM

-- ask For the compound COc1ccc(F)c(C2(NCC(=O)N3CC4CCC(C3)N4c3ccc(C#N)cn3)CCC2)c1 , what IC50 is on record?
-- reply 0.01 to 0.1 µM

-- ask Entry under review: COc1ncccc1C1(OCC(=O)N2CC3CCC(C2)N3c2ccc(C#N)cn2)CCC1 . Reported IC50?
-- reply < 0.01 µM

-- ask Quick one: IC50 for N#Cc1ccc(N2[C@@H]3CC[C@H]2CN(C(=O)CCNC2(c4cc(Cl)cc(Br)c4)CC2)C3)nc1 ?
-- reply 0.1 to 1 µM

-- ask Please look up its IC50: COc1cccc(C2(NCC(=O)N3CC4CCC(C3)N4c3ccc(C#N)cn3)CC2)c1F
-- reply 0.01 to 0.1 µM

-- ask Would you mind telling me what IC50 value was observed for COc1cc([C@H](C)NCC(=O)N2C[C@H]3CC[C@@H](C2)N3c2ccc(C#N)cn2)ccn1 ?
-- reply < 0.01 µM

-- ask Record request: IC50 value, item COc1ccc(C2(NCCC(=O)N3CC4CCC(C3)N4c3ccc(C#N)cn3)CC2)cc1
-- reply 0.1 to 1 µM

-- ask Returns the measured IC50 for the input compound. Input: C[C@H](NCCC(=O)N1C[C@H]2CC[C@@H](C1)N2c1ccc(C#N)cn1)c1ccc(F)cc1
-- reply 1 to 10 µM

-- ask Would you mind telling me what IC50 value was observed for CC(OCCC(=O)N1CC2CCC(C1)N2c1ccc(C#N)cn1)c1cccc2ncccc12 (racemic) ?
-- reply < 0.01 µM

-- ask Look at this compound and give its reported IC50. CC(c1ccc(F)cc1)[S+]([O-])CC(=O)N1CC2CCC(C1)N2c1ccc(C#N)cn1 (racemic)
-- reply 0.1 to 1 µM

* * *

Each entry below lists one item and its recorded IC50 value.
- system tested: human M1 receptor (Homo sapiens)
- Sequence (P11229 1-460): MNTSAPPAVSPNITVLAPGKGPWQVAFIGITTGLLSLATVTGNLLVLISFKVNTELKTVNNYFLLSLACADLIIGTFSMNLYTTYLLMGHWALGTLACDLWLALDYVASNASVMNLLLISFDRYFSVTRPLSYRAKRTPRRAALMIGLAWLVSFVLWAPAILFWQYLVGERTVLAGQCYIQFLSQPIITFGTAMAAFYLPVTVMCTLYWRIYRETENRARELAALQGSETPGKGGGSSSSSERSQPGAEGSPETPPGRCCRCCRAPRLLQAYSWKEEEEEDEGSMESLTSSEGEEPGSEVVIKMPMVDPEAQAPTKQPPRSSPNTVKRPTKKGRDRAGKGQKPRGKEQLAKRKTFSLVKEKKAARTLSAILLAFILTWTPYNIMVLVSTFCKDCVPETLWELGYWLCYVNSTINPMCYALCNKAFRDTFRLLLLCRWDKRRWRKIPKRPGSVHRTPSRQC
- assay overview: In vitro functional assay of muscarinic acetylcholine receptor activity (aequorin calcium flux, reversal of EC80 acetylcholine response)
- Assay type: cell-based
- assay setup: CHO-K1 cells stably expressing human M1 receptor with aequorin; acetylcholine at EC80; calcium flux (luminescence); read-out: M1 IC50

Examples with answers:
1) N#Cc1ccc(N2C3CCC2CN(C(=O)COCC2(c4ccncc4)CC2)C3)nc1; 1000 to 10000 nM
2) N#Cc1ccc(N2C3CCC2CN(C(=O)COC2(c4ccc(F)cc4C#N)CC2)C3)nc1; 10 to 100 nM

-- ask What value of IC50 has been reported for the following compound? C[C@H](OCCC(=O)N1CC2CCC(C1)N2c1ccc(C#N)cn1)c1ccccc1
-- reply 100 to 1000 nM

-- ask Please give the measured IC50 for this compound: N#Cc1ccc(N2C3CCC2CN(C(=O)COC2(c4ccc(F)cc4)CC2)C3)nc1
-- reply 100 to 1000 nM

-- ask IC50 lookup needed for N#Cc1ccc(N2C3CCC2CN(C(=O)CNC2(c4ccc(F)cc4F)CCC2)C3)nc1 , thanks.
-- reply 10 to 100 nM

-- ask Requested read-out: IC50. Entry: N#Cc1ccc(N2C3CCC2CN(C(=O)COC2(c4ccc(F)c(C#N)c4)CC2)C3)nc1
-- reply 100 to 1000 nM
